Cited source for all entries: the supplement of paper PMC10127200

Each entry below lists one item and its recorded Euclidean distance value.
Test system: DU145
Assay: Euclidean distance of Cell Painting phenotypic profile (signed KS, 77 features) to DMSO centroid (dimensionless distance); 5 or 10 uM (library dependent); higher = stronger phenotypic change vs DMSO (phenoactivity)
Details: 48 h
Structures can show the parent of a compound that is named as a salt.
Respond with the number and no other words.

Example cases with answers are listed next.
>  <compound>
Cc1cnc(-c2cc(N3CCN(C(=O)CCS(C)(=O)=O)CC3)ncc2Cl)c(C)c1

>  <meas_value>
1.04

$$$$
>  <compound>
COC(=O)N[C@H](C(=O)N1CCC[C@H]1C(=O)Nc1ccc([C@@H]2CC[C@@H](c3ccc(NC(=O)[C@@H]4CCCN4C(=O)[C@@H](NC(=O)OC)C(C)C)cc3)N2c2ccc(C(C)(C)C)cc2)cc1)C(C)C [Ombitasvir (ABT-267)]

>  <meas_value>
1.29

$$$$
>  <compound>
CC(=O)[C@]1(O)Cc2c(O)c3c(c(O)c2[C@@H](O[C@H]2C[C@H](N)[C@H](O)[C@H](C)O2)C1)C(=O)c1ccccc1C3=O [Idarubicin HCl]

>  <meas_value>
4.5

$$$$
>  <compound>
C[C@H]1[C@H](C)CC[C@]2(C(=O)O[C@@H]3O[C@H](CO[C@@H]4O[C@H](CO)[C@@H](O[C@@H]5O[C@@H](C)[C@H](O)[C@@H](O)[C@H]5O)[C@H](O)[C@H]4O)[C@@H](O)[C@H](O)[C@H]3O)CC[C@]3(C)C(=CC[C@@H]4[C@@]5(C)C[C@@H](O)[C@H](O)[C@@](C)(CO)[C@@H]5[C@H](O)C[C@]43C)[C@H]12 [Madecassoside]

>  <meas_value>
0.932

$$$$

Kindly review the next compound as well.
Given CN1CC(=O)N2[C@H](c3ccc4c(c3)OCO4)c3[nH]c4ccccc4c3C[C@@H]2C1=O [Tadalafil] , respond with its Euclidean distance.
0.404
